# Measured target: human cytochrome P450_2A6 (Homo sapiens)
# Sequence (P11509 1-494): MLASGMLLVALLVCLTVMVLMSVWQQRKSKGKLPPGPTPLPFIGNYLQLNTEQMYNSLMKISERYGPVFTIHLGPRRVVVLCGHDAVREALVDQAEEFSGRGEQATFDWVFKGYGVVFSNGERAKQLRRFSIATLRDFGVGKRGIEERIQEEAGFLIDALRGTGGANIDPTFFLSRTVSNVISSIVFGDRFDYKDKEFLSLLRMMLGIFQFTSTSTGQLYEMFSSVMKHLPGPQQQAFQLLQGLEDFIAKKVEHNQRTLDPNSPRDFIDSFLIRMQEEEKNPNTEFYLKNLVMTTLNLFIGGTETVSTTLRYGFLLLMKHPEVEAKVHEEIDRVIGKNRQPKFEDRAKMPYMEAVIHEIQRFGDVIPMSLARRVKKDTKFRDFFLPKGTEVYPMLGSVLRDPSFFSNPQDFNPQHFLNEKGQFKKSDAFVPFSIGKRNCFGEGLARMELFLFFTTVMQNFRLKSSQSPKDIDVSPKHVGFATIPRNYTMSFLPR
# Experimental protocol: Inhibition of P450 2A6
# Format: biochemical
pKi: −log10 of the molar value.
Would you please tag the item yes (1) when its pKi is 4 or above, and no (0) when it is below?

Check out these entries, answers already filled in.
{"Smiles entry": "CCCCCCCCC=O", "Category label": "yes (1)"}
{"Smiles entry": "CCCCCC=O", "Category label": "yes (1)"}
{"Smiles entry": "CCCCCCCC=O", "Category label": "yes (1)"}
{"Smiles entry": "CCC=CC=O", "Category label": "no (0)"}

Let's switch to this compound now.
Does the reported pKi for CCC/C=C/C=O fall at or above the 4 mark?
yes (1)
